# Assayed system: Interstitial collagenase (Homo sapiens)
# Sequence (P03956 whole entry): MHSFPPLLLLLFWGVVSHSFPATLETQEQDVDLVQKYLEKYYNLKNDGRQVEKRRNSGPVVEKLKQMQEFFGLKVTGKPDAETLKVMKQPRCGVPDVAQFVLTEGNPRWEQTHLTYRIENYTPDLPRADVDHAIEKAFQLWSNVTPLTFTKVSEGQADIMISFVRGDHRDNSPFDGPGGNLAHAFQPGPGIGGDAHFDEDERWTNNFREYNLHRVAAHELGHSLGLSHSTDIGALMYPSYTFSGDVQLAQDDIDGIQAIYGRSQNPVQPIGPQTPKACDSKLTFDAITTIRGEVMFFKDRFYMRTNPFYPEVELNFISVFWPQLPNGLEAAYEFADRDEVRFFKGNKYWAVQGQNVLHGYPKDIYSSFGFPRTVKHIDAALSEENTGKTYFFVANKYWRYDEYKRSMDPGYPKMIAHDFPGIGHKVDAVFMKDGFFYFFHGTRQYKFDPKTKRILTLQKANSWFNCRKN
# Test: Inhibition of radiolabeled rat skin type I collagen degradation by purified human lung fibroblast collagenase.
Metric: IC50 (nM)

Consider the reported IC50 for these molecules:
INSERT INTO measurements (molecule, metric, endpoint_value) VALUES
  ('CNC(=O)[C@H](Cc1ccc(OC)cc1)NC(=O)[C@H](CC(C)C)[C@@H](S)CC(=O)O', 'IC50', 25),
  ('CNC(=O)[C@@H](NC(=O)C(CC(C)C)C(S)CC(=O)OC)C(C)OCc1ccccc1 (stereo in doubt; 57ab)', 'IC50', 3),
  ('CNC(=O)[C@H](Cc1ccc(OC)cc1)NC(=O)[C@H](CC(C)C)[C@@H](S)CC(=O)N1CCN(C)CC1', 'IC50', 120);

A. CNC(=O)[C@H](Cc1ccc(OC)cc1)NC(=O)[C@H](CC(C)C)[C@@H](S)CC(=O)NCC(=O)OC(C)(C)C
B. CNC(=O)C[C@H](S)[C@@H](CC(C)C)C(=O)N[C@@H](Cc1ccc(OC)cc1)C(=O)NC
C. CNC(=O)[C@H](Cc1ccc(OC)cc1)NC(=O)[C@H](CC(C)C)[C@H](CC(=O)OC)SC(C)=O
D. CNC(=O)[C@H](Cc1ccc(OC)cc1)NC(=O)[C@H](CC(C)C)[C@@H](S)CC(=O)NC(CC(C)C)C(=O)O (stereo partly drawn)
E. CNC(=O)[C@H](Cc1ccc(OC)cc1)NC(=O)[C@H](CC(C)C)[C@@H](S)CC(N)=O
Write the entries in order, lowest recorded IC50 first. I would appreciate it if you listed the labels in the requested order. E, C, B, A, D
